# reported-conditions: in ethylene glycol, 293.15 K
value-type: solubility (mole fraction)
Lab note: write the figure by itself, no unit.

Inquiry: Item "COc1ccc(C(=O)O)cc1" has what recorded solubility (mole fraction)?
Reply text: 0.0038

###

# reported-conditions: in acetone, 318.15 K
value-type: solubility (mole fraction)
Give the figure only, with no unit attached.

Inquiry: Endpoint output: solubility (mole fraction) of "COc1ccc(C(=O)O)cc1" . Value?
Reply text: 0.032

###

# reported-conditions: in isobutanol, 298.15 K
value-type: solubility (mole fraction)
Just the number, please, no unit after it.

Inquiry: Data request, read-out solubility (mole fraction), for "COc1ccc(C(=O)O)cc1"
Reply text: 0.00889

###

# reported-conditions: in n-butyl acetate, 323.15 K
value-type: solubility (mole fraction)

Inquiry: Which solubility (mole fraction) is listed for "COc1ccc(C(=O)O)cc1" ?
Reply text: 0.021

###

# reported-conditions: in 2-butanone, 293.15 K
value-type: solubility (mole fraction)
// return just the number, without any unit appended

Inquiry: Looking for the measured solubility (mole fraction) of "COc1ccc(C(=O)O)cc1" , can you help?
Reply text: 0.0149

###

# reported-conditions: in ethyl formate, 308.15 K
value-type: solubility (mole fraction)

Inquiry: Data request, read-out solubility (mole fraction), for "COc1ccc(C(=O)O)cc1"
Reply text: 0.0114

###

# reported-conditions: in sec-butanol, 298.15 K
value-type: solubility (mole fraction)
API doc: respond with a numeric literal and nothing else, no unit.

Inquiry: Reported solubility (mole fraction) for "COc1ccc(C(=O)O)cc1" : what is it?
Reply text: 0.0121

###

# reported-conditions: in n-butanol, 308.15 K
value-type: solubility (mole fraction)
Give the figure by itself; no unit, no explanation.

Inquiry: Entry under review: "COc1ccc(C(=O)O)cc1" . Reported solubility (mole fraction)?
Reply text: 0.0158

###

# reported-conditions: in ethylene glycol, 313.15 K
value-type: solubility (mole fraction)
Give the figure by itself; no unit, no explanation.

Inquiry: Data request, read-out solubility (mole fraction), for "COc1ccc(C(=O)O)cc1"
Reply text: 0.00768

###

# reported-conditions: in ethylene glycol, 308.15 K
value-type: solubility (mole fraction)

Inquiry: Name the recorded solubility (mole fraction) for "COc1ccc(C(=O)O)cc1" .
Reply text: 0.00649

###

# reported-conditions: in isobutanol, 288.15 K
value-type: solubility (mole fraction)
Number only, please.

Inquiry: Field request: solubility (mole fraction) | item: "COc1ccc(C(=O)O)cc1"
Reply text: 0.00548

###

# reported-conditions: in sec-butanol, 283.15 K
value-type: solubility (mole fraction)

Inquiry: Fill blank: measured solubility (mole fraction) of the compound "COc1ccc(C(=O)O)cc1" is ____.
Reply text: 0.00623

###

# reported-conditions: in toluene, 293.15 K
value-type: solubility (mole fraction)
API note: the answer field is a bare number with no unit suffix.

Inquiry: Requested read-out: solubility (mole fraction). Entry: "COc1ccc(C(=O)O)cc1"
Reply text: 0.0012

###

# reported-conditions: in acetone, 298.15 K
value-type: solubility (mole fraction)
Enter the number alone.

Inquiry: # lookup: solubility (mole fraction) of "COc1ccc(C(=O)O)cc1"
Reply text: 0.0197

###

# reported-conditions: in sec-butanol, 318.15 K
value-type: solubility (mole fraction)
The answer should be written as a number, with no unit following it.

Inquiry: What value of solubility (mole fraction) has been recorded for this entry: "COc1ccc(C(=O)O)cc1"
Reply text: 0.0274
